System: HCC70 breast cancer cells
Assay notes: Anti-proliferative MTT assay
Type: cell-based
Applied conditions: Homo sapiens, 24 h, read-out: % Growth inhibition ± SEM HCC70

- Compound: "COc1ccc(C2CC(c3ccc(Cl)cc3Cl)=NN2c2nc(C)c(N=Nc3ccc(Cl)cc3)s2)cc1 (centres unmarked) [Compound 13c]"
  inhibition at 10 µM / %: 1.1
- Compound: "COc1ccc(C2CC(c3ccc(Cl)cc3Cl)=NN2c2nc(-c3ccc(Cl)cc3)cs2)cc1OC (centres unmarked) [Compound 7d]"
  inhibition at 10 µM / %: 17.3
- Compound: "COc1ccc(C2CC(c3ccc(Cl)cc3Cl)=NN2c2nc(-c3ccc(Cl)cc3)cs2)cc1 (centres unmarked) [Compound 7b]"
  inhibition at 10 µM / %: 19.6
- Compound: "COc1ccc(C2CC(c3ccc(Cl)cc3Cl)=NN2c2nc(C)c(N=Nc3ccccc3)s2)cc1 (centres unmarked) [Compound 13a]"
  inhibition at 10 µM / %: 15.3
- Compound: "COc1ccc(C2CC(c3ccc(Cl)cc3Cl)=NN2c2nc(C)c(N=Nc3ccccc3)s2)cc1OC (centres unmarked) [Compound 13d]"
  inhibition at 10 µM / %: 22.3
- Compound: "COc1ccc(C2CC(c3ccc(Cl)cc3Cl)=NN2c2nc(C)c(N=Nc3ccc(Cl)cc3)s2)cc1OC (centres unmarked) [Compound 13f]"
  inhibition at 10 µM / %: 6.3
- Compound: "COc1ccc(C2CC(c3ccc(Cl)cc3Cl)=NN2c2nc(-c3ccccc3)cs2)cc1OC (centres unmarked) [Compound 7c]"
  inhibition at 10 µM / %: 7.3
- Compound: "COc1ccc(C2CC(c3ccc(Cl)cc3Cl)=NN2c2nc(C)c(N=Nc3ccc(C)cc3)s2)cc1 (centres unmarked) [Compound 13b]"
  inhibition at 10 µM / %: 8.3
- Compound: "COc1ccc(C2CC(c3ccc(Cl)cc3Cl)=NN2c2nc(C)c(C(=O)Nc3ccccc3)s2)cc1 (centres unmarked) [Compound 10c]"
  inhibition at 10 µM / %: 18.3
- Compound: "COc1ccc(C2CC(c3ccc(Cl)cc3Cl)=NN2c2nc(C)c(N=Nc3ccc(C)cc3)s2)cc1OC (centres unmarked) [Compound 13e]"
  inhibition at 10 µM / %: 16.1
- Compound: "COc1ccc(C2CC(c3ccc(Cl)cc3Cl)=NN2c2nc(C)c(C(C)=O)s2)cc1 (centres unmarked) [Compound 10a]"
  inhibition at 10 µM / %: 24.3
- Compound: "COc1ccc(C2CC(c3ccc(Cl)cc3Cl)=NN2c2nc(-c3ccccc3)cs2)cc1 (centres unmarked) [Compound 7a]"
  inhibition at 10 µM / %: 27.3
- Compound: "CCOC(=O)c1sc(N2N=C(c3ccc(Cl)cc3Cl)CC2c2ccc(OC)cc2)nc1C (centres unmarked) [Compound 10b]"
  inhibition at 10 µM / %: 41.5
- Compound: "COc1ccc(C2CC(c3ccc(Cl)cc3Cl)=NN2c2nc(C)c(C(=O)Nc3ccccc3)s2)cc1OC (centres unmarked) [Compound 10d]"
  inhibition at 10 µM / %: 54.1
